// pIC50 lookup, one value per entry
- Target Entity: PD-1/PD-L1 (Homo sapiens, UniProt Q9NZQ7)
- Sequence (Q9NZQ7 19-238 limits assumed): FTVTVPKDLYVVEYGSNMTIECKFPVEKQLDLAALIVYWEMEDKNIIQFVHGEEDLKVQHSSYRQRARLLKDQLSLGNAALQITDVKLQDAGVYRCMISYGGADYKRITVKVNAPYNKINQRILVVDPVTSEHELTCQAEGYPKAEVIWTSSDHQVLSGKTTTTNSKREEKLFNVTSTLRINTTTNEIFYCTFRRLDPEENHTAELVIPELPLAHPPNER
- Assay Name: TR-FRET PD-1/PD-L1 binding inhibition at the molecular level (free proteins)
- Condition Parameters: Tag1-PD-L1 and Tag2-PD-1 proteins, twelve concentrations from 200 nM, 2 hours at room temperature, read-out: FRET assay (IC50)
pIC50: −log10 of the molar value.
Quantity Kind: pIC50

[
  {
    "Compound": "COc1cc(C(=O)Nc2cccc(-c3cccc(NC(=O)c4cc5n(n4)CCCC5N4CC[C@@H](C(=O)O)C4)c3Cl)c2Cl)cc(F)c1CNCCO (stereo partly drawn)",
    "Assay Result": "> 8.00"
  },
  {
    "Compound": "O=C(Nc1cccc(-c2cccc(Nc3nc(C(F)(F)F)nc4cc(CN5CC[C@@H](O)C5)cnc34)c2Cl)c1Cl)c1cc2n(n1)CCC[C@H]2N1CC[C@@H](O)C1",
    "Assay Result": "7.00 to 8.00"
  },
  {
    "Compound": "Cc1c(NC(=O)c2ccc(CN3CC[C@@H](O)C3)cn2)cccc1-c1cccc(NC(=O)c2cc3n(n2)CCCC3N2CC[C@@H](O)C2)c1C (stereo partly drawn)",
    "Assay Result": "> 8.00"
  },
  {
    "Compound": "CC(C)(N[C@@H]1CCCn2nc(C(=O)Nc3cccc(-c4cccc(Nc5nccc6nccnc56)c4Cl)c3Cl)cc21)C(=O)O",
    "Assay Result": "7.00 to 8.00"
  },
  {
    "Compound": "Cc1c(NC(=O)c2ccc(CNCCO)cn2)cccc1-c1cccc(NC(=O)c2cc3n(n2)CCCC3N2CC[C@@H](O)C2)c1C (stereo partly drawn)",
    "Assay Result": "> 8.00"
  },
  {
    "Compound": "COc1cc(-c2cccc(-c3cccc(NC(=O)c4cc5n(n4)CCCC5NCC(=O)O)c3Cl)c2Cl)cc(F)c1CN1CC[C@@H](O)C1 (stereo partly drawn)",
    "Assay Result": "> 8.00"
  }
]

====

- Target Entity: PD-1/PD-L1 (Homo sapiens, UniProt Q9NZQ7)
- Assay Name: TR-FRET PD-1/PD-L1 binding inhibition at the molecular level (free proteins)
- Condition Parameters: Tag1-PD-L1 and Tag2-PD-1 proteins, twelve concentrations from 200 nM, 2 hours at room temperature, read-out: FRET assay (IC50)

[
  {
    "Compound": "Cc1c(NC(=O)c2cc3n(n2)CCC[C@@H]3N2CC[C@@H](O)C2)cccc1-c1cccc(Nc2nc(C(F)(F)F)nc3cc(CN4CC[C@@H](O)C4)cnc23)c1C [Compound 344]",
    "Target Entity": "PD-1/PD-L1 (Homo sapiens, UniProt Q9NZQ7)",
    "IC50": "10 to 100 nM"
  },
  {
    "Compound": "Cc1c(NC(=O)c2cc3n(n2)CCCC3N2CC[C@@H](O)C2)cccc1-c1cccc(-c2cc3n(n2)CCCC3NCCO)c1C (stereo partly drawn) [Compound 160]",
    "Target Entity": "PD-1/PD-L1 (Homo sapiens, UniProt Q9NZQ7)",
    "IC50": "10 to 100 nM"
  },
  {
    "Compound": "CN[C@H]1CCCn2nc(C(=O)Nc3cccc(-c4cccc(NC(=O)c5ccc(CN6CC[C@@H](O)C6)cn5)c4C)c3C)cc21 [Compound 348]",
    "Target Entity": "PD-1/PD-L1 (Homo sapiens, UniProt Q9NZQ7)",
    "IC50": "< 10 nM"
  },
  {
    "Compound": "Cn1c(C(=O)Nc2cccc(-c3cccc(NC(=O)c4cc5n(n4)CCCC5NC[C@@H]4CCC(=O)N4)c3Cl)c2Cl)nc2c1CCN(CCC13CCC(C(=O)O)(CC1)C3)C2 (stereo partly drawn) [Compound 54]",
    "Target Entity": "PD-1/PD-L1 (Homo sapiens, UniProt Q9NZQ7)",
    "IC50": "10 to 100 nM"
  },
  {
    "Compound": "CC(C)(N[C@@H]1CCCn2nc(C(=O)Nc3cccc(-c4cccc(Nc5nc(C(F)(F)F)nc6cccnc56)c4Cl)c3Cl)cc21)C(=O)O [Compound 276]",
    "Target Entity": "PD-1/PD-L1 (Homo sapiens, UniProt Q9NZQ7)",
    "IC50": "< 10 nM"
  },
  {
    "Compound": "COc1cc(-c2cccc(-c3cccc(NC(=O)c4cc5n(n4)CCC[C@@H]5NCC(=O)O)c3Cl)c2Cl)cc(F)c1CNC[C@@H]1CCC(=O)N1 [Compound 249]",
    "Target Entity": "PD-1/PD-L1 (Homo sapiens, UniProt Q9NZQ7)",
    "IC50": "10 to 100 nM"
  },
  {
    "Compound": "OCCNC1CCCn2nc(-c3cccc(-c4cccc(Nc5nccc6cc(CN7CC[C@@H](O)C7)cnc56)c4Cl)c3Cl)cc21 (stereo partly drawn) [Compound 180]",
    "Target Entity": "PD-1/PD-L1 (Homo sapiens, UniProt Q9NZQ7)",
    "IC50": "< 10 nM"
  },
  {
    "Compound": "O=C(Nc1cccc(-c2cccc(Nc3nccc4cc(CN5CC(F)C5)cnc34)c2Cl)c1Cl)c1cc2n(n1)CCC[C@@H]2N1CCC(C(=O)O)CC1 [Compound 283]",
    "Target Entity": "PD-1/PD-L1 (Homo sapiens, UniProt Q9NZQ7)",
    "IC50": "10 to 100 nM"
  },
  {
    "Compound": "Cc1c(NC(=O)c2ccc(CNCCO)cn2)cccc1-c1cccc(NC(=O)c2cc3n(n2)CCCC3N2CCC(O)CC2)c1C (stereo not drawn) [Compound 78]",
    "Target Entity": "PD-1/PD-L1 (Homo sapiens, UniProt Q9NZQ7)",
    "IC50": "< 10 nM"
  },
  {
    "Compound": "Cc1c(Nc2nccc3cc(CN4CC[C@@H](O)C4)cnc23)cccc1-c1cccc(-c2cc3n(n2)CCCC3N2CC[C@@H](C(=O)O)C2)c1C (stereo partly drawn) [Compound 178]",
    "Target Entity": "PD-1/PD-L1 (Homo sapiens, UniProt Q9NZQ7)",
    "IC50": "< 10 nM"
  },
  {
    "Compound": "COc1cc(-c2cccc(-c3cccc(NC(=O)c4cc5n(n4)CCCC5O)c3C)c2C)cc(F)c1CNC[C@@H]1CCC(=O)N1 (stereo partly drawn) [Compound 112]",
    "Target Entity": "PD-1/PD-L1 (Homo sapiens, UniProt Q9NZQ7)",
    "IC50": "< 10 nM"
  },
  {
    "Compound": "Cc1c(Nc2nccc3cc(CN4CC[C@@H](O)C4)cnc23)cccc1-c1cccc(NC(=O)c2cc3n(n2)CCCC3N2CC[C@@H](C(=O)O)C2)c1Cl (stereo partly drawn) [Compound 33]",
    "Target Entity": "PD-1/PD-L1 (Homo sapiens, UniProt Q9NZQ7)",
    "IC50": "< 10 nM"
  }
]

Cited source: patent EP4755888A1
